A collection of molecules and their measured melting point

Please review the following examples before continuing.
* CN1CCN(C2=Nc3ccccc3Nc3ccsc32)CC1 | 202 to 206 °C
* Cc1cc(C2=CCN(CCCC(=O)c3ccc(F)cc3)CC2)on1 | 96 to 98 °C

Input: # query: melting point of entry O=S(=O)(c1ccc2ccccc2c1)N1C[C@H](O)C[C@H]1COCc1ccccc1
Output: 124 to 126 °C

Input: Quick check: melting point of CC(C)(C)c1cc(CCC(=O)NCCNc2c(Cl)nc(Cl)c(Cl)c2C#N)cc(C(C)(C)C)c1O ?
Output: 150 to 160 °C

Input: Please report the recorded melting point for CC(C)(C)OC(=O)NC[C@H]1CC[C@H](NC(=O)OCc2ccccc2)CC1 .
Output: 130 to 131 °C

====

property-measured: melting point

- CSc1ccc(N(C(C)C)S(=O)(=O)c2ccc(C)cc2)c([N+](=O)[O-])c1: 124 to 126 °C
- OCCN1CC[C@@H]2[C@H]1CCC[C@@]2(O)c1ccc(Cl)c(Cl)c1 (racemic): 161 °C
- C[C@]1(CN2CC=C(c3ccccc3)CC2)Cn2cc([N+](=O)[O-])nc2O1: 200 to 201 °C
- COCC(=O)Nc1cccc2c1C(=O)N(C1CCC(=O)NC1=O)C2=O (stereo unspecified): 246 to 248 °C
- CCc1nc2c(N)nc3ccccc3c2n1CCCCNC(=O)Nc1ccccc1: 180 to 181 °C

Input: Entry C[C@@H](n1cnc2cc(N)c(F)cc2c1=O)[C@](O)(Cn1cncn1)c1ccc(F)cc1F has what melting point?
Output: 124 to 125 °C

Input: Please report the recorded melting point for CCOC(=O)Cc1c(C(=O)OCC)cnc2c(NC(=O)c3c(Cl)cccc3Cl)cccc12 .
Output: 159 °C

Input: Item CSc1c(C#N)c(=O)n2ccccc2c1C(C)=O has what recorded melting point?
Output: 178 °C

Input: Consider the compound shown here: C=CCC1=C(O)C(C)=CC(C)(OC(C)=O)C1C (stereo unspecified) What is its recorded melting point?
Output: 117 to 118 °C

Input: Quick one: melting point for COc1ccc(Oc2c(C)cc(O)cc2C)cc1C(C)C ?
Output: 60 to 64 °C

Input: Dear colleague, I am looking for the recorded melting point of the following compound: O=C1Nc2cccnc2N(C(=O)N2CCC(CCN3CCCCC3)CC2)c2ccccc21
Output: 178 to 180 °C

Input: Tell me the measured melting point of CCSc1cc(C)nc(SCC)c1NC(=O)CCCCCCCCSc1nc2cccc(C(F)(F)F)c2o1 , please.
Output: 115 to 116 °C

Input: State the recorded melting point for this entry: O=c1[nH]c2ncc(-c3ccc(O)cc3)nc2n1CCC1CCOCC1
Output: 276 to 277 °C

Input: Query: melting point; subject: Cc1ccc2c(n1)sc1c(=O)n(C)nnc12
Output: 169 to 171 °C

Input: So what does the record say about melting point for COc1ccc(C(F)(F)C(F)(F)F)cc1C(C)=O ?
Output: 47 °C

Input: // query melting point value for entry C[C@H](NC(=O)CCS)C(=O)O
Output: 64 °C

Input: // melting point lookup, key: O=C1[C@H]2CCC[C@H]2N(C(=O)CBr)c2ccccc2N1Cc1ccccc1F (relative stereo)
Output: 198 to 200 °C

Input: What does the data say about its melting point? Entry: CCOC(=O)c1c(O)cc(C(F)(F)F)nc1C(F)(F)F
Output: 70 to 77 °C

Input: What value of measured melting point is listed for O=C(CC(=O)OCc1ccccc1)OCc1ccccc1 ?
Output: 104 to 106 °C

Input: Data request, read-out melting point, for Cc1ccc(C(=O)c2cc3cc(OCc4ccccc4)ccc3[nH]2)cc1
Output: 199 to 200 °C

Input: Recorded melting point for COc1cc2c(c(OC)c1)C1=C(CC2)C2=CCC(=O)C2(C)CC1 (stereo unspecified) , please?
Output: 120 to 121 °C

====

Parameter: melting point. Scope: all listed entries.

• CC(C)N1Cc2c(Cl)nc(Cl)nc2C1=O = 122 to 123 °C

Input: Entry Cc1ccc(C2=C(C(=O)O)N(CC(C)C)Cc3ccc(OCc4ccccc4)cc32)cc1 has what melting point?
Output: 153 to 154 °C

Input: Reported melting point for CC(C)CC(C=CCC(N)=O)NC(=O)C1CCCN1C(=O)OCc1ccccc1 (stereo not drawn) : what is it?
Output: 140 to 142 °C

Input: Field request: melting point | item: COC(=O)c1ccc(C(=O)N2CCC(NC3CCOCC3)CC2)cc1
Output: 129 °C

Input: I would be grateful if you could share the reported melting point for Cc1nc(N(C)C=O)sc1C(=O)CBr .
Output: 80 to 82 °C

Input: // melting point lookup, key: CSc1cnc(Cl)c(Cl)c1
Output: 66 to 67 °C

Input: So what does the record say about melting point for N#Cc1ccccc1C(F)(F)C(F)(F)c1ccccc1 ?
Output: 84 to 86 °C

Input: Quick one: melting point for CCN1CC(=O)C(C#N)=C1N ?
Output: 278 to 280 °C

Input: Name the recorded melting point for CCOC(=O)C(=CNc1cccc(C#N)c1)C(=O)OCC .
Output: 109 to 111 °C

Input: Suppose we examine the molecule CCN1C(=O)C(=O)N(c2c(C)cccc2C)C1=S ; what melting point value has been reported?
Output: 103 to 105 °C

Input: Bench note: what melting point did CC(=O)NN=Cc1ccc2ccccc2n1 show?
Output: 218 to 219 °C

Input: # input molecule: CNc1ccccc1C(C)=O ; wanted: its melting point
Output: 34 to 35 °C

Input: Need melting point of C1=C(c2ccc3ccccc3c2)CCN(Cc2n[nH]c3ccccc23)C1 , thanks.
Output: 225 to 227 °C

Input: Fill blank: measured melting point of the molecule O=C(CCCc1ccccc1)N[C@H](Cc1ccccc1C(F)(F)F)[C@@H](O)c1ccc(F)cc1 (racemic) is ____.
Output: 161 to 162 °C

Input: Can you look up the measured melting point of CCCCc1nc2ccccn2c(=O)c1-c1ccc(NC2CCN(C(=O)OC(C)(C)C)C2)cc1 (stereo not drawn) for me?
Output: 116 to 118 °C

====

property-measured: melting point

- CCOC(=O)C1=C(COCc2nnc(CN(C)C)s2)NC(C)=C(C(=O)OC)C1c1cccc(Cl)c1Cl (stereo not given): 168 to 170 °C
- COC(=O)c1c(Br)ccc2nn(C)c(C)c12: 109 to 111 °C

Input: Need melting point of CCOC(=O)C(=O)Nc1cccc(OC)c1C(N)=O , thanks.
Output: 170 to 173 °C

Input: Reported melting point, compound CCOP(=O)(Cc1cccc2cccc(CP(=O)(OCC)OCC)c12)OCC : ____
Output: 55 to 56 °C

Input: Need melting point of COc1cc2ccccc2c(OC)c1C(=O)O , thanks.
Output: 119 to 123 °C

Input: Tell me the measured melting point of NC1=NC(Cl)N(c2c([N+](=O)[O-])cc([N+](=O)[O-])cc2C(F)(F)F)C(Cl)=C1 (stereo not given) , please.
Output: 198 to 200 °C

Input: Quick check: melting point of CCC12CCC3C4CCC(=O)C=C4CCC3C1C=CC2=O (stereo not given) ?
Output: 157 °C

Input: Which value of melting point has been reported for N#CCC(=O)N[C@H]1CC[C@H](CCN2CCC(c3cccc4c3CCO4)CC2)CC1 in the records?
Output: 194 °C

Input: Query (compound): CS(=O)(=O)c1ccc(-c2oc3ccccc3c(=O)c2-c2cnccc2Cl)cc1 ; field requested: melting point
Output: 232 to 233 °C

Input: Tell me the measured melting point of CCOC(=O)CCn1c(=O)c(=O)[nH]c2cc(C(F)(F)F)c(N)cc21 , please.
Output: 262 to 263 °C

====

property-measured: melting point (°C)

- COCc1cc(=O)c(Oc2ccc(F)cc2F)c(-c2ccc(S(C)(=O)=O)cc2)o1: 124
- C#Cc1ccc(C2(C3CCCCCCC3)CCCCCCC2)cc1: 167
- CN1CCc2c(cccc2NC(=O)c2ccccc2F)C1: 112

(I) CCCNC(=S)c1ccc2c(c1)N(C(C)CN(CC)CC)c1ccc(Cl)cc1S2 (racemic)
(II) O=c1[nH]cnc2cc3c(cc12)OCCO3
Input: Return label of the item with the larger melting point. Candidates: I , II . To answer, give the label that identifies your chosen option.
Output: II
(II: 275 °C, I: 130 °C)

====

Quick reference: melting point of the listed items.

- COc1ccc(C=O)c(Oc2ccc(Cl)cc2[N+](=O)[O-])c1: 130 to 131 °C
- COC(=O)c1ccc(OC[C@H](C)N(C)C(=O)C(F)(F)F)cc1: 73 to 75 °C
- O=C(CCc1ccc(NC(=O)C(F)(F)F)c([N+](=O)[O-])c1)Nc1ccc(Cl)cc1Cl: 193 to 194 °C
- O=C1CCCc2[nH]c3cc(F)ccc3c21: 231 to 233 °C
- C=CCN1CCC(Nc2nc3cncnc3n2Cc2ccc(F)cc2)CC1: 145 °C

--- query ---
Input: # get_value(readout='melting point', item= COc1ccc(-n2nc(Sc3ccc(F)cc3)c(C)c(C#N)c2=O)cc1 )
Output: 150 to 152 °C

Origin of values: a melting point compilation (Tetko et al.; mined from patent text by program, amines drawn as free bases though some values may be those of a salt)
